# normalized growth annotations
assay: chemical genetic growth profiling, strain panel (AID 1159580);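 note: tested at 20 µM; growth read once vehicle control cultures reached saturation at 30 °C; 1 = growth at the plate median or of vehicle wells; lower values mean less growth of the strain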; details: S. cerevisiae deletion strains, growth OD, locus YGL227W, strain vid30, stronger effect = lower value
Out of some 5,500 compounds screened, about 2,000 (36%) were called active. Roughly 18% stayed inconclusive and do not appear here. This is one part of the list.
MEASURED_ENDPOINT: normalized growth

CC(CCC(=O)O)[C@H]1CCC2C3CC[C@@H]4C[C@H](O)CC[C@]4(C)C3CC[C@@]21C (stereo partly drawn)    1
O=c1cc(-c2cc(O)c(O)c(O)c2)oc2cc(O)cc(O)c12    1.01
C[C@H](CCC(=O)O)[C@H]1CCC2C3C(CC[C@@]21C)[C@@]1(C)CC[C@@H](O)C[C@H]1C[C@@H]3O (stereo partly drawn)    0.998
Cc1cc(=O)oc2c(O)c(O)ccc12    0.962
CNC(=O)Oc1ccc2c(c1)[C@]1(C)CCN(C)[C@@H]1N2C    1.01
Nc1ccn(C2O[C@H](CO)[C@@H](O)[C@H]2O)c(=O)n1 (stereo partly drawn)    0.993
O=c1cc(-c2ccc(O)cc2)oc2cc(O)ccc12    0.941
CN(CCC(N)CC(=O)N[C@H]1C=CC(n2ccc(N)nc2=O)O[C@@H]1C(=O)O)C(=N)N (stereo partly drawn)    0.98

* * *

Entries and their normalized growth values follow.
assay: chemical genetic growth profiling, strain panel (AID 1159580);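 note: tested at 20 µM; growth read once vehicle control cultures reached saturation at 30 °C; 1 = growth at the plate median or of vehicle wells; lower values mean less growth of the strain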; settings: S. cerevisiae deletion strains, growth OD, locus YOR231W, strain MKK1, stronger effect = lower value
The campaign covered roughly 5,500 compounds. About 2,000 (36%) were called active. Not shown: some 18% with an inconclusive outcome. The list shows a part of the results.
MEASURED_ENDPOINT: normalized growth

C=C1[C@H]2CC[C@@]3(C)[C@H](c4ccoc4)OC(=O)C[C@]13O[C@H]1C[C@H](O)C(C)(C)[C@H](CC(=O)OC)[C@]12C    0.985
COC(=O)c1c(C)cc(OC(=O)c2c(C)cc(O)c(C=O)c2O)c(C)c1O    0.981
C[C@@H](N)[C@@H](O)c1ccccc1    1.01
O=[N+]([O-])c1cccc2cn[nH]c12    1.01

* * *

assay: chemical genetic growth profiling, strain panel (AID 1159580);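 note: tested at 20 µM; growth read once vehicle control cultures reached saturation at 30 °C; 1 = growth at the plate median or of vehicle wells; lower values mean less growth of the strain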; details: S. cerevisiae deletion strains, growth OD, locus YNL067W, strain RPL9B, stronger effect = lower value
Screen size: about 5,500 compounds; about 2,000 (36%) were called active. Not shown: some 18% with an inconclusive outcome. This is one part of the list. Where a SMILES comes first, the peptide text is derived from it.
MEASURED_ENDPOINT: normalized growth

CCC(=O)c1ccc2c(c1)N(CC(C)N(C)C)c1ccccc1S2 (stereo not given)    0.99
CNCCCN1c2ccccc2CCc2ccccc21    0.998
C=C1C(C2(C)C=CC(=O)C(C)(C)C2CC(=O)OC)CC[C@@]2(C)[C@H](c3ccoc3)OC(=O)C3OC132 (stereo not given in full)    0.992
COC(=O)c1c(C)cc(OC(=O)c2c(C)cc(O)c(C=O)c2O)c(C)c1O    0.972
CC(=O)Nc1ccccc1    0.964
NS(=O)(=O)c1cc2c(cc1Cl)NC(C1CC3C=CC1C3)NS2(=O)=O (stereo not given)    1
CN(C)CCOC(=O)C(c1ccccc1)C1(O)CCCC1 (stereo not given)    1.02
COc1c(Cl)ccc(Cl)c1C(=O)O    1.01
CCCCSP(=O)(SCCCC)SCCCC    1.01
O=c1cc(-c2ccccc2)oc2c(O)c(O)ccc12    0.955
COc1c2ccoc2nc2c(OC)c(OCC(O)C(C)(C)O)ccc12 (stereo not given)    1.03
C=C1C2CC[C@@]3(C)[C@H](c4ccoc4)OC(=O)C[C@]13O[C@H]1CC(=O)C(C)(C)C(CC(=O)OC)[C@@]21C (stereo not given in full)    1.02
O=c1cc(-c2ccccc2)oc2cc(O)cc(O)c12    0.898
O=c1cc(-c2cc(O)c(O)c(O)c2)oc2cc(O)cc(O)c12    1.01
COC(=O)CCCOc1ccc(Cl)cc1Cl    0.995
COC(=O)CCC(=O)O[C@H]1CCC2(C)C(CCC3C2C(=O)[C@@H](O)C2(C)C3CC3OC4(CCC(C)CO4)[C@@H](C)C32)C1 (stereo not given in full)    1.01
NC(N)=NCCC[C@@H](NC(=O)[C@@H](N)Cc1ccc(O)cc1)C(=O)O    1.01
O=C(O)c1ccccc1C(=O)Nc1ccc(S(=O)(=O)Nc2nccs2)cc1    1.01
CCC(=O)Nc1ccc(Cl)c(Cl)c1    0.965
CCCC(C(=O)OCCN(CC)CC)(c1ccccc1)c1ccccc1    0.996
C[C@@H]1O[C@@H](O[C@H]2C[C@@H](O)[C@]3(CO)C4C(CC[C@]3(O)C2)[C@@]2(O)CC[C@H](C3=CC(=O)OC3)[C@@]2(C)C[C@H]4O)[C@H](O)[C@H](O)[C@H]1O (stereo not given in full)    1.01
COC(=O)c1c(C)cc(OC(=O)c2c(C)c(Cl)c(O)c(C=O)c2O)c(C)c1O    0.995
NCCCCC(N)C(=O)NC(Cc1ccc(O)cc1)C(=O)NC(CCCCN)C(=O)O (stereo not drawn) (H-Lys-Tyr-Lys-OH; configuration not given here)    1.04
CC(=O)OCC(=O)[C@@]1(O)[C@H](OC(C)=O)CC2C3CCC4=CC(=O)C=C[C@]4(C)[C@@]3(F)[C@@H](O)C[C@@]21C (stereo not given in full)    0.998
O=C(Nc1ccccc1)c1ccccc1O    0.9
CN(C)N=Nc1nc[nH]c1C(N)=O    1.01
COc1cc(C)c(C(=O)Oc2cc(C)c(C(=O)O)c(O)c2C)c(OC)c1C    1.04
CN1CC(CNC(=O)OCc2ccccc2)CC2c3cccc4c3c(cn4C)CC21 (stereo not given)    0.96
C=C[C@H]1CN2CC[C@H]1C[C@@H]2[C@H](O)c1ccnc2ccccc12    0.977
O=C(Nc1ccccc1)Nc1ccccc1    0.996
CC(CN(C)C)CN1c2ccccc2Sc2ccccc21 (stereo not given)    0.967
Cc1cc(=O)oc2c(O)c(O)ccc12    1.01
O=C(O)CCCOc1ccc(Cl)cc1Cl    0.997
C=C1C2CCC3(C)C(c4ccoc4)OC(=O)CC13OC1CC(OC(C)=O)C(C)(C)C(CC(=O)OC)C12C (stereo not given)    0.998
CN(C)CCOC(=O)COc1ccc(Cl)cc1    1.06
